Examples of molecules with documented glass transition temperature follow.

Molecule	Value Units	glass transition temperature
*Oc1ccc(C(C)(C)c2ccc(Oc3ccc(C(=O)c4c(C)ccc5c(C(=O)c6ccc(*)cc6)c(C)ccc45)cc3)cc2)cc1 (repeat unit)	°C	222.00
*C(=O)Nc1ccc(C(c2ccc(NC(=O)c3ccc4c(c3)C(=O)N(c3ccc(Oc5cccc6c(Oc7ccc(N8C(=O)c9ccc(*)cc9C8=O)cc7)cccc56)cc3)C4=O)cc2)(C(F)(F)F)C(F)(F)F)cc1 (repeat unit)	°C	283.00
*Oc1ccc(NC(=O)CCCCC(=O)Nc2ccc(*)cc2)cc1 (repeat unit)	°C	230.00
*c1ccc(Oc2c(C)cc(C(c3cc(C)c(Oc4ccc(-n5c(=O)c6cc7c(=O)n(*)c(=O)c7cc6c5=O)cc4)c(C)c3)c3cccc4ccccc34)cc2C)cc1 (repeat unit)	°C	315.00
*CC(*)(C(=O)OC)c1ccccc1 (repeat unit)	°C	121.00
*C(=O)Nc1ccc(C(c2ccc(NC(=O)c3ccc4c(c3)C(=O)N(c3ccc(-c5ccc(N6C(=O)c7ccc(*)cc7C6=O)c(OC)c5)cc3OC)C4=O)cc2)(C(F)(F)F)C(F)(F)F)cc1 (repeat unit)	°C	250.00

====

Assay Readout: glass transition temperature (°C)

Compound	Endpoint Result
*Nc1ccc(NC(=O)c2ccc(NC(=O)CCCCCCCCC(=O)Nc3ccc(C(*)=O)cc3)cc2)cc1C(=O)OCCCCCCCCCCCCCC (repeat unit)	225.00
*c1ccc(Oc2ccc(C(=O)c3ccc(Oc4ccc(C(=O)c5ccc(Oc6ccc(-c7nc(-c8ccc(-c9nc(*)c(-c%10ccccc%10)[nH]9)cc8)[nH]c7-c7ccccc7)cc6)cc5)cc4)cc3)cc2)cc1 (repeat unit)	245.00
*Oc1ccc(-c2ccc(-c3ccc(Oc4ccc(C(C)(C)c5ccc(*)cc5)cc4)cc3)cc2)cc1 (repeat unit)	182.00
*Nc1ccc(C(c2ccc(NC(=O)c3cc(C(*)=O)cc(C(C)(C)C)c3)cc2)(C(F)(F)F)C(F)(F)F)cc1 (repeat unit)	284.10
*c1ccc(-c2cc(CCCCCCCC)c(-c3ccc(-c4ccc(-c5sc(-c6ccc([Si](C)(C)[Si](*)(C)C)s6)cc5CCCCCCCC)s4)s3)s2)s1 (repeat unit)	12.00
*Oc1ccc(NC(=O)CCCCCCC(=O)Nc2ccc(OC3COC4C(*)COC34)cc2)cc1 (repeat unit)	72.50

====

Label true when glass transition temperature >= 100 °C; otherwise false.

Molecule	Assigned Label
*C/C=C(\C)C(C)S(*)(=O)=O (repeat unit)	false
*c1ccc2c(c1)C(=O)N(c1ccc(C(c3ccc(C)c(N4C(=O)c5ccc(C(*)(C(F)(F)F)C(F)(F)F)cc5C4=O)c3)(C(F)(F)F)C(F)(F)F)cc1C)C2=O (repeat unit)	true
*C(=O)c1ccc2c(c1)C(=O)N(c1c(C)cc(C(c3cccc(C(F)(F)F)c3)c3cc(C)c(N4C(=O)c5ccc(*)cc5C4=O)c(C)c3)cc1C)C2=O (repeat unit)	true
*CC(*)c1cccc2c1OCO2 (repeat unit)	true
*CCCCCCCCCCCCNC(=O)C(OC)C(OC)C(=O)N* (repeat unit)	false

====

Molecule	glass transition temperature
*Oc1ccc(C(C)(C)c2ccc(Oc3ccc4c(=O)n5c6cc(-c7ccc8c(c7)nc7c9ccc(*)c%10cccc(c(=O)n87)c%109)ccc6nc5c5cccc3c45)cc2)cc1 (repeat unit)	380.00 °C
*CC(*)(C)C(=O)OCCc1ccc(/N=N/c2ccccc2)cc1 (repeat unit)	80.00 °C
*c1cccc(P(=O)(c2ccccc2)c2cccc(-n3c(=O)c4cc5c(=O)n(*)c(=O)c5c(-c5cc(C(F)(F)F)cc(C(F)(F)F)c5)c4c3=O)c2)c1 (repeat unit)	299.00 °C

====

Entries and their measured glass transition temperature follow.
Assay Readout: glass transition temperature (°C)

Molecule	Endpoint Result
*c1ccc(-c2ccc(-n3c(=O)c4cc5c(=O)n(*)c(=O)c5cc4c3=O)cc2C)c(C)c1 (repeat unit)	369.2
*c1cccc(NC(=O)CCCCCCC(=O)Nc2cccc(S(*)(=O)=O)c2)c1 (repeat unit)	125.00
*C(=O)Nc1cccc(NC(=O)c2ccc3[nH]c(-c4cccc(-c5nc6cc(*)ccc6[nH]5)c4)nc3c2)c1 (repeat unit)	297.50
*C(=O)Nc1cccc(NC(=O)c2ccc3[nH]c(-c4cc(-c5nc6cc(*)ccc6[nH]5)cc(N5C(=O)c6ccccc6C5=O)c4)nc3c2)n1 (repeat unit)	312.00
*c1ccc([Si](c2ccccc2)(c2ccccc2)c2ccc(-c3nnc(-c4cncc(-c5nnc(*)o5)c4)o3)cc2)cc1 (repeat unit)	272.00
*CC(*)SCCCC (repeat unit)	-20.00
*CCCC(C)CNC(=O)c1ccc(C(=O)N*)cc1 (repeat unit)	153.00
*Oc1cc(Oc2ccc(C(C)(C)c3ccc(*)cc3)cc2)cc(C(=O)Oc2ccc(/N=N/c3ccc(C#N)cc3)cc2)c1 (repeat unit)	163.00
*CCOCCC(=O)O* (repeat unit)	-35.00
*/C=C(\C#N)C(=O)NC1CCCCC1NC(=O)/C(C#N)=C/c1ccc(/C=C/c2ccc(N(c3ccccc3)c3ccc(N(c4ccccc4)c4ccc(/C=C/c5ccc(*)s5)cc4)cc3)cc2)s1 (repeat unit)	240.00
*Nc1cc(NC(=O)c2cc(OCCN(C)c3ccc(C#N)cc3)cc(C(*)=O)c2)cc(C(=O)OCCN(C)c2ccc(C#N)cc2)c1 (repeat unit)	167.00
*O[Si](C)(C)O[Si](C)(C)O[Si](C)(C)O[Si](C)(C)O[Si](C)(C)c1ccc([Si](*)(C)C)cc1 (repeat unit)	-80.00
*CC1CCCC(CNC(=O)c2cc(C(=O)N*)cc(C(C)(C)C)c2)C1 (repeat unit)	200.00
*Oc1ccc(CC(NC(=O)CCc2ccc(OC(=O)COCCOCC(*)=O)cc2)C(=O)OCC(C)C)cc1 (repeat unit)	50.00
*Oc1ccc(Oc2ccc(P(=O)(c3ccccc3)c3ccc(Oc4ccc(Oc5cccc(*)n5)cc4)cc3)cc2)cc1 (repeat unit)	164.00

====

Listed next: entries and their corresponding glass transition temperature.
Assay Readout: glass transition temperature (°C)

Compound	Endpoint Result
*Oc1ccc(C(C)(c2ccccc2)c2ccc(OC(=O)c3cccc(C(*)=O)c3)cc2)cc1 (repeat unit)	202.00
*CC(*)c1ccccc1C(=O)OCCN(C)C (repeat unit)	69.00
*OC1CCC(OC(=O)OCCCCOC(*)=O)CC1 (repeat unit)	30.00
*CC(*)(C)C(=O)OCCCCCCCCCCCCOc1ccc(C(=O)Oc2ccc(-c3cccc(OC(=O)c4ccc(OC(=O)c5ccc(OCCCCCCCCCCCC)cc5)cc4)c3)cc2)cc1 (repeat unit)	74.50
*Oc1ccc(-c2ccc(Oc3ccc(C(=O)c4ccc5cc(C(=O)c6ccc(*)cc6)ccc5c4)cc3)cc2)cc1 (repeat unit)	195.00
*c1ccc(N(c2ccc(C#N)cc2)c2ccc(N3C(=O)c4ccc(-c5ccc6c(c5)C(=O)N(*)C6=O)cc4C3=O)cc2)cc1 (repeat unit)	358.00
*C(=O)Nc1ccc(Cc2ccc(NC(=O)c3ccc4c(c3)C(=O)N(c3ccc(Oc5ccc6ccc(Oc7ccc(N8C(=O)c9ccc(*)cc9C8=O)cc7)cc6c5)cc3)C4=O)cc2)cc1 (repeat unit)	273.00

====

Labelling field: enter 1.0 if recorded glass transition temperature is less than 200 °C. Enter 0.0 if it equals or exceeds that cut-off.

> print(dat)
                                   molecule  assigned.label
1  *Oc1ccc(NC(=O)c2cc(NC(=O)c3ccncc3)cc(C(=O)Nc3ccc(*)cc3)c2)cc1 (repeat unit)             0.0
2  *c1ccc(-n2c(=O)c3cc4c(=O)n(*)c(=O)c4cc3c2=O)cc1 (repeat unit)             0.0
3  *CCCCC(=O)Oc1ccc(OC(=O)c2ccc3c(c2)C(=O)N(*)C3=O)c(C)c1 (repeat unit)             1.0
4  *CCOCCOCCOCCOc1ccc(/C=C(\C)c2ccc(O*)cc2)cc1 (repeat unit)             1.0

====

glass transition temperature values for the molecules below.

Molecule	glass transition temperature [°C]
*CC(*)c1c(F)c(F)c(OC)c(F)c1F (repeat unit)	94.00
*CCCCCCn1ccc(-c2ccc(-c3ccn(*)n3)cc2)n1 (repeat unit)	55.00
*CC(*)(C)C(=O)OCC(F)(F)C(F)(F)C(F)(F)C(F)(F)C(F)(F)C(F)(F)C(F)(F)C(F)F (repeat unit)	-15.00
*Oc1ccc(Oc2ccc(C(=O)c3ccc(*)cc3)cc2)cc1C(C)(C)C (repeat unit)	177.00
*C(=O)c1cc(C(=O)c2ccc3c(c2)C(=O)N(c2ccc(C(c4ccc(N5C(=O)c6ccc(*)cc6C5=O)cc4)(C(F)(F)F)C(F)(F)F)cc2)C3=O)cc(C(C)(C)C)c1 (repeat unit)	267.50
*OC(C)COC(C)COC(=O)c1ccc(C(*)=O)cc1 (repeat unit)	37.00
*C(=O)Nc1cc(C(F)(F)F)ccc1Oc1cccc2c(Oc3ccc(C(F)(F)F)cc3NC(=O)c3ccc4c(c3)C(=O)N(c3ccc(Oc5ccc(N6C(=O)c7ccc(*)cc7C6=O)cc5-c5ccccc5)c(-c5ccccc5)c3)C4=O)cccc12 (repeat unit)	376.00

Measured values drawn from the PolyMetriX glass transition set for this set.
